Recorded values, source patent US10888542B2.

compounds and their reported inhibition at 10 µM
Target: dopamine transporter (Rattus norvegicus, UniProt P23977)
Construct: The receptor source was rat striatal membranes; from tissue; host or cells: striatum of male SD rats (Orient Korea), membrane preparation
Sequence (P23977 whole entry): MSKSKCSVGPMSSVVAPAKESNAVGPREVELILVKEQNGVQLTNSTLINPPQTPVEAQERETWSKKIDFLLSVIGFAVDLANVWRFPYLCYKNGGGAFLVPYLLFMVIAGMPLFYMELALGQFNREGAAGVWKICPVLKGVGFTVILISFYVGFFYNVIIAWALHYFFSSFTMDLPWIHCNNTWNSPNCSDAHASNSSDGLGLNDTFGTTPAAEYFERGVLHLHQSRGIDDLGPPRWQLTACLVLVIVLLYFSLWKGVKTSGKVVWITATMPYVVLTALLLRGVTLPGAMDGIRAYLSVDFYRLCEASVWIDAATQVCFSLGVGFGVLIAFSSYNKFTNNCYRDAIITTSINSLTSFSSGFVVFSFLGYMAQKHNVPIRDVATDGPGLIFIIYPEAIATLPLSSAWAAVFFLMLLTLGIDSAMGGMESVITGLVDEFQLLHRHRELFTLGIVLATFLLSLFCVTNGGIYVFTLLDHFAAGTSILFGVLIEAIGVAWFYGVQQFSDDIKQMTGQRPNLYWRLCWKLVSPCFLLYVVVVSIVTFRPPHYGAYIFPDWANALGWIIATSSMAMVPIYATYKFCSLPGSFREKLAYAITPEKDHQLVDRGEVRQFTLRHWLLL
Assay: Dopamine transporter binding assay ([3H]GBR12935, rat striatal membranes)
Conditions: 10 μM test compound, radioligand [3H]GBR12935 1.0 nM, 25° C., 45 minutes
experimental endpoint: inhibition at 10 µM

compound: CN(C(N)=O)C(=O)OC[C@H](N)Cc1ccccc1Cl [Example 18]
target desc: dopamine transporter (Rattus norvegicus, UniProt P23977)
experimental endpoint: inhibition at 10 µM
result: 17.5%

compound: CC(C)N[C@@H](COC(=O)NC(N)=O)Cc1ccccc1.Cl [Example 3]
target desc: dopamine transporter (Rattus norvegicus, UniProt P23977)
experimental endpoint: inhibition at 10 µM
result: 40.1%

compound: NC(=O)NC(=O)OC[C@H](N)Cc1ccc(Cl)c(Cl)c1 [Example 7]
target desc: dopamine transporter (Rattus norvegicus, UniProt P23977)
experimental endpoint: inhibition at 10 µM
result: 41.2%

compound: NC(=O)NC(=O)OC[C@H](N)Cc1ccc(Cl)cc1Cl [Example 6]
target desc: dopamine transporter (Rattus norvegicus, UniProt P23977)
experimental endpoint: inhibition at 10 µM
result: 20.4%

compound: NC(=O)N(Cc1ccccc1)C(=O)OC[C@H](N)Cc1ccccc1 [Example 16]
target desc: dopamine transporter (Rattus norvegicus, UniProt P23977)
experimental endpoint: inhibition at 10 µM
result: 20.8%

compound: CN[C@@H](COC(=O)NC(N)=O)Cc1ccccc1 [Example 14]
target desc: dopamine transporter (Rattus norvegicus, UniProt P23977)
experimental endpoint: inhibition at 10 µM
result: 35.9%

compound: CN(C(N)=O)C(=O)OCC(N)Cc1ccccc1 (centres unmarked) [Example 24]
target desc: dopamine transporter (Rattus norvegicus, UniProt P23977)
experimental endpoint: inhibition at 10 µM
result: 45%

compound: CCN(C(N)=O)C(=O)OC[C@H](N)Cc1ccccc1 [Example 17]
target desc: dopamine transporter (Rattus norvegicus, UniProt P23977)
experimental endpoint: inhibition at 10 µM
result: 41.2%

compound: CN(C)[C@@H](COC(=O)NC(N)=O)Cc1ccccc1.Cl [Example 4]
target desc: dopamine transporter (Rattus norvegicus, UniProt P23977)
experimental endpoint: inhibition at 10 µM
result: 38.4%

compound: NC(=O)NC(=O)OCC(N)Cc1ccc(Cl)cc1 (centres unmarked) [Example 9]
target desc: dopamine transporter (Rattus norvegicus, UniProt P23977)
experimental endpoint: inhibition at 10 µM
result: 42.8%

compound: CN(C(N)=O)C(=O)OC[C@H](N)Cc1ccc(Cl)c(Cl)c1 [Example 22]
target desc: dopamine transporter (Rattus norvegicus, UniProt P23977)
experimental endpoint: inhibition at 10 µM
result: 37%

compound: Cl.NC(=O)NC(=O)OC[C@H](N)Cc1ccccc1 [Example 2]
target desc: dopamine transporter (Rattus norvegicus, UniProt P23977)
experimental endpoint: inhibition at 10 µM
result: 50.1%

compound: CN(C(N)=O)C(=O)OC[C@@H](Cc1ccccc1)N(C)C [Example 15]
target desc: dopamine transporter (Rattus norvegicus, UniProt P23977)
experimental endpoint: inhibition at 10 µM
result: 55.5%

compound: CN(C(N)=O)C(=O)OC[C@H](N)Cc1ccccc1 [Example 8]
target desc: dopamine transporter (Rattus norvegicus, UniProt P23977)
experimental endpoint: inhibition at 10 µM
result: 20.3%

compound: CN(C(N)=O)C(=O)OC[C@H](N)Cc1ccc(Cl)cc1Cl [Example 21]
target desc: dopamine transporter (Rattus norvegicus, UniProt P23977)
experimental endpoint: inhibition at 10 µM
result: 31.5%

compound: CN(C(N)=O)C(=O)OC[C@H](N)Cc1ccc(F)cc1 [Example 19]
target desc: dopamine transporter (Rattus norvegicus, UniProt P23977)
experimental endpoint: inhibition at 10 µM
result: 34.3%

compound: N[C@@H](COC(=O)NC(=O)Nc1ccccc1)Cc1ccccc1 [Example 29]
target desc: dopamine transporter (Rattus norvegicus, UniProt P23977)
experimental endpoint: inhibition at 10 µM
result: 50.7%
